Molecular target: UniProtKB P10275
Sequence (P10275 1-920): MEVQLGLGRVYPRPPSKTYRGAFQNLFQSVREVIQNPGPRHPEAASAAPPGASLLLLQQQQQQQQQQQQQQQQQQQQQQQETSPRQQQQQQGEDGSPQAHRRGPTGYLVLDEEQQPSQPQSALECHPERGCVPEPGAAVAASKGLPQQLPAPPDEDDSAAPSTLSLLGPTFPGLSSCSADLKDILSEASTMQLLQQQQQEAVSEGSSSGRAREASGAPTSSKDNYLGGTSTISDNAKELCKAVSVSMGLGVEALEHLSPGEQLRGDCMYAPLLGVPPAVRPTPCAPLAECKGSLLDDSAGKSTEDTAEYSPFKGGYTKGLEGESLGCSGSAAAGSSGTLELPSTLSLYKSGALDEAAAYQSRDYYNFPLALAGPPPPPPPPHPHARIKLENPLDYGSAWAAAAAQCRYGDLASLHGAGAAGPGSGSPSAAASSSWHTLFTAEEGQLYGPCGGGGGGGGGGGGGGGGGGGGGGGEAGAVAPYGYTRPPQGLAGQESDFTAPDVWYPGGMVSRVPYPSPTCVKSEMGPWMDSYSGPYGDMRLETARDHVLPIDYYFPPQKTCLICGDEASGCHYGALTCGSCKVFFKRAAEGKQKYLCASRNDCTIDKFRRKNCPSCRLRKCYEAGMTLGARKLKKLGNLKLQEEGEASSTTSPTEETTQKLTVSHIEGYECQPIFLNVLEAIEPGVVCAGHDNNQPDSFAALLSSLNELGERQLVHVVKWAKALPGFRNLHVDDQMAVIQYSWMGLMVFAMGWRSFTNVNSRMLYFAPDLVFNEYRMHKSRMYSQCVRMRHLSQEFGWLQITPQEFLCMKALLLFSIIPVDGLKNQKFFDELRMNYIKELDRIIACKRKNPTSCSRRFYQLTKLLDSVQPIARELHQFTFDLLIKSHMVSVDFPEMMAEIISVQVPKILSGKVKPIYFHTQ
Test: Androgen receptor binding test
Set-up: expressed in transfected cells
Conditions: reference substance 3H-testosterone
Listed next: entries and their corresponding Androgen receptor Competition factor.

compound	target	Androgen receptor Competition factor
CC[C@]12CC[C@H]3[C@@H](CCC4=CC(=O)CC[C@@H]43)[C@@H]1[C@@H]1C[C@@H]1[C@@]21C=CC(=O)O1 [Example 9]	UniProtKB P10275	5.6
CC[C@]12CC[C@H]3[C@@H]([C@H]4C[C@H]4C4=CC(=O)CC[C@@H]43)[C@@H]1[C@@H]1C[C@@H]1[C@@]21C=CC(=O)O1 [Example 1]	UniProtKB P10275	30.6
C[C@]12CC[C@H]3[C@@H](C=CC4=CC(=O)CC[C@@H]43)[C@@H]1[C@H]1C[C@H]1[C@@]21C=CC(=O)O1 [Example 13]	UniProtKB P10275	163.2
CC[C@@H]1CC2=CC(=O)CC[C@@H]2[C@H]2CC[C@@]3(CC)[C@@H]([C@@H]4C[C@@H]4[C@@]34C=CC(=O)O4)[C@H]12 [Example 5A]	UniProtKB P10275	4.1
C[C@]12CC[C@H]3[C@@H](CC4(CC4)C4=CC(=O)CC[C@@H]43)[C@@H]1[C@@H]1C[C@@H]1[C@@]21C=CC(=O)O1 [Example 22]	UniProtKB P10275	2.0
